Kindly state pEC50 for each of the entries shown.
- System: Tacaribe virus
- Experimental protocol: Antiviral activity against Tacaribe virus infected in human Huh7.5 cells
- Type: functional, organism-based
- Assay context: Mammarenavirus tacaribeense, Huh-7
Answers are plain numbers, as −log10 of the molar value.

Missing value: pEC50, Tacaribe virus, entry CC(=O)N(CCCCCCN1C[C@H](O)[C@@H](O)[C@H](O)[C@H]1CO)C1CCCCC1 . Fill in?
6.00

Missing value: pEC50, Tacaribe virus, entry CC(C)(C)CC(=O)N(CCCCCCN1C[C@H](O)[C@@H](O)[C@H](O)[C@H]1CO)C1CCCCC1 . Fill in?
6.40

Missing value: pEC50, Tacaribe virus, entry CC(C)(C)C(=O)N(CCCCCCN1C[C@H](O)[C@@H](O)[C@H](O)[C@H]1CO)c1ccc(F)cc1F . Fill in?
5.60

Missing value: pEC50, Tacaribe virus, entry CC(C)(C)C(=O)N(CCCCCCN1C[C@H](O)[C@@H](O)[C@H](O)[C@H]1CO)C1CCCCC1 . Fill in?
6.70

Missing value: pEC50, Tacaribe virus, entry CC1CCCCC1N(CCCCCCN1C[C@H](O)[C@@H](O)[C@H](O)[C@H]1CO)C(=O)C(C)(C)C (stereo partly drawn) . Fill in?
6.70

Could you tell me pEC50 for each of these molecules? They are listed below.
1. CC(C)(C)C(=O)N(CCCCCCN1C[C@H](O)[C@@H](O)[C@H](O)[C@H]1CO)C1CCCCCCC1
2. CC1CCCCC1N(CCCCCCN1C[C@H](O)[C@@H](O)[C@H](O)[C@H]1CO)C(=O)OC(C)(C)C (stereo partly drawn)
3. CC(C)(C)C(=O)N(CCCCCCN1C[C@H](O)[C@@H](O)[C@H](O)[C@H]1CO)c1cc(F)ccc1F

1. 6.54
2. 6.52
3. 6.21

----------
Kindly state CC50 for each of the entries shown.
- Experimental protocol: Cytotoxicity against MDBK cells by MTT assay
- Type: cell-based, Bos taurus
- Assay context: cattle

Could you tell me CC50 for each of these compounds? They are listed below.
1. CC1CCCCC1N(CCCCCCN1C[C@H](O)[C@@H](O)[C@H](O)[C@H]1CO)C(=O)OC(C)(C)C (stereo partly specified)
2. CC(=O)N(CCCCCCN1C[C@H](O)[C@@H](O)[C@H](O)[C@H]1CO)c1ccc(F)cc1F
3. OC[C@@H]1[C@@H](O)[C@H](O)[C@@H](O)CN1CCCCCCN(C1CCCCC1)C1CCCCC1
4. CC(C)(C)C(=O)N(CCCCCCN1C[C@H](O)[C@@H](O)[C@H](O)[C@H]1CO)C1C2CC3CC(C2)CC1C3 (stereo partly specified)
5. CC(C)(C)C(=O)N(CCCCCCN1C[C@H](O)[C@@H](O)[C@H](O)[C@H]1CO)C1CCCCC1
6. CC(C)(C)C(=O)N(CCCCCCN1C[C@H](O)[C@@H](O)[C@H](O)[C@H]1CO)C1CC1
7. CC1CCCCC1N(CCCCCCN1C[C@H](O)[C@@H](O)[C@H](O)[C@H]1CO)C(=O)C(C)(C)C (stereo partly specified)
8. CC(C)(C)C(=O)N(CCCCCCN1C[C@H](O)[C@@H](O)[C@H](O)[C@H]1CO)c1cc(F)ccc1F

250 µM
> 500 µM
> 500 µM
180 µM
> 500 µM
> 500 µM
> 500 µM
> 500 µM

----------
Kindly state EC50 for each of the entries shown.
- System: Tacaribe virus
- Experimental protocol: Antiviral activity against Tacaribe virus infected in human Huh7.5 cells
- Assay type: functional, organism-based
- Assay context: Mammarenavirus tacaribeense, Huh-7
Answers are plain numbers, in nM.

Given the entry CC(C)(C)C(=O)N(CCCCCCN1C[C@H](O)[C@@H](O)[C@H](O)[C@H]1CO)C1C2CC3CC(C2)CC1C3 (some centres undefined) , report its measured EC50.
500

Could you tell me EC50 for each of these molecules? They are listed below.
1. CC(C)(C)C(=O)N(CCCCCCN1C[C@H](O)[C@@H](O)[C@H](O)[C@H]1CO)C1CCCCCC1
2. CC(C)(C)C(=O)N(CCCCCCN1C[C@H](O)[C@@H](O)[C@H](O)[C@H]1CO)C12CC3CC(CC(C3)C1)C2
3. CC(C)(C)C(=O)N(CCCCCCN1C[C@H](O)[C@@H](O)[C@H](O)[C@H]1CO)C1CCCC1

[1000, 210, 4000]

----------
Kindly state CC50 for each of the entries shown.
- Experimental protocol: Cytotoxicity against BHK cells by MTT assay
- Assay type: cell-based, Mesocricetus auratus
- Assay context: hamster

Worked cases, CC50 given:
Given the entry CC(C)(C)CC(=O)N(CCCCCCN1C[C@H](O)[C@@H](O)[C@H](O)[C@H]1CO)C1CCCCC1 , report its measured CC50.
> 500 µM

Given the entry CC(C)(C)C(=O)N(CCCCCCN1C[C@H](O)[C@@H](O)[C@H](O)[C@H]1CO)C12CC3CC(CC(C3)C1)C2 , report its measured CC50.
> 500 µM

Given the entry CC(C)(C)C(=O)N(CCCCCCN1C[C@H](O)[C@@H](O)[C@H](O)[C@H]1CO)C1CCC1 , report its measured CC50.
> 500 µM

Given the entry CC1CCCCC1N(CCCCCCN1C[C@H](O)[C@@H](O)[C@H](O)[C@H]1CO)C(=O)OC(C)(C)C (stereo partly specified) , report its measured CC50.
230 µM

Could you tell me CC50 for each of these molecules? They are listed below.
1. CC(=O)N(CCCCCCN1C[C@H](O)[C@@H](O)[C@H](O)[C@H]1CO)C1CCCCC1
2. CC(C)(C)C(=O)N(CCCCCCN1C[C@H](O)[C@@H](O)[C@H](O)[C@H]1CO)C1CC1

1. > 500 µM
2. > 500 µM

----------
- Experimental protocol: Cytotoxicity against MDBK cells by MTT assay
- Type: cell-based, Bos taurus
- Assay context: cattle
Observed property: CC50

Worked cases, CC50 given:
Given the entry CC(C)(C)C(=O)N(CCCCCCN1C[C@H](O)[C@@H](O)[C@H](O)[C@H]1CO)C12CC3CC(CC(C3)C1)C2 , report its measured CC50.
420 µM

Given the entry CC(C)(C)C(=O)N(CCCCCCN1C[C@H](O)[C@@H](O)[C@H](O)[C@H]1CO)C1CCC1 , report its measured CC50.
> 500 µM

# next compound below
Given the entry CC(=O)N(CCCCCCN1C[C@H](O)[C@@H](O)[C@H](O)[C@H]1CO)C1CCCCC1 , report its measured CC50.
> 500 µM
